All figures here come from patent US20230373974A1.

measurement-target: F508del in NIH 3T3 cells (Homo sapiens, UniProt P13569, DEL508-508)
Sequence (P13569 with tags, fused parts or gaps DEL508-508): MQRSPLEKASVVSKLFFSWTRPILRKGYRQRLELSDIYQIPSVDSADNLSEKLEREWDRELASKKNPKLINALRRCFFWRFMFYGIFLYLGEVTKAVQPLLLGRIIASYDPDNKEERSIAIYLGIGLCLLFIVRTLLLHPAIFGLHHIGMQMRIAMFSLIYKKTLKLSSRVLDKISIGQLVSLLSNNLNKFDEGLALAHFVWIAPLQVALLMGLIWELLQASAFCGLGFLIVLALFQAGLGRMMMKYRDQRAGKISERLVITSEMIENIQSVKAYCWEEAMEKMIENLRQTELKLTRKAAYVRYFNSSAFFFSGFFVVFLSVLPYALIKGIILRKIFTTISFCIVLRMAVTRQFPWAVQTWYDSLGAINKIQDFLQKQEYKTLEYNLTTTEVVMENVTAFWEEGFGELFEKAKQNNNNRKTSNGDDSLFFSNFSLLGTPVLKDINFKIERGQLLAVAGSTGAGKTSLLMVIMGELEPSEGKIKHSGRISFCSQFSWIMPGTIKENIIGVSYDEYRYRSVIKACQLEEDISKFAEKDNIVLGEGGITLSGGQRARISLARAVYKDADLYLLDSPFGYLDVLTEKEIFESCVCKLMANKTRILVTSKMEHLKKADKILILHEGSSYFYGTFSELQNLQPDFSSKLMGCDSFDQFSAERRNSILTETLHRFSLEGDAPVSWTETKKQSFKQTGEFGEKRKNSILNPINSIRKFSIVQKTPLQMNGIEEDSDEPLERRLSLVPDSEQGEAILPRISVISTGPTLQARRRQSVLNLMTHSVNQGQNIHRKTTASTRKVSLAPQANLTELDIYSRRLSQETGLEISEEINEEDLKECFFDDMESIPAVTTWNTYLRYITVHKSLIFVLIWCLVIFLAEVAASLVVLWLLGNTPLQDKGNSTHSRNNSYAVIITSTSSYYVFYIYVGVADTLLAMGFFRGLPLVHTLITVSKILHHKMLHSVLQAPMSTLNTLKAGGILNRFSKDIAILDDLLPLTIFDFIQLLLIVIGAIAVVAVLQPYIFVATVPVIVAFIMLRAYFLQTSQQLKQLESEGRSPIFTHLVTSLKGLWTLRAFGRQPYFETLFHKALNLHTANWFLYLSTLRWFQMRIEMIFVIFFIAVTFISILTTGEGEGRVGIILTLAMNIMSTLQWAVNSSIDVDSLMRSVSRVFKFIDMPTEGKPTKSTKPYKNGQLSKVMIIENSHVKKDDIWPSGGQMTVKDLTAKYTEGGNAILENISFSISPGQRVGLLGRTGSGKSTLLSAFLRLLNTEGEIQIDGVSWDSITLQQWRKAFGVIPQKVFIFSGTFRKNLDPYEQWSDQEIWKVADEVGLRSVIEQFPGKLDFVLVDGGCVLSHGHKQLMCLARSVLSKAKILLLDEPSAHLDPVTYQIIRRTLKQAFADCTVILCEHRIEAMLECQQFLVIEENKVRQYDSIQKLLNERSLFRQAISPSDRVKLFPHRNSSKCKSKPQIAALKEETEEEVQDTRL
assay-summary: 3T3 assay: membrane potential optical assay for F508del correction
details: F508del NIH 3T3 cells, incubated with compound 18-24 hours at 37° C., forskolin activation
observed-property: EC50

Consider the reported EC50 for these molecules:
COc1ccc(OC)c(S(=O)(=O)Nc2nn(-c3c(C)cc(C)cc3C)c3nc(C(C)(C)C)ccc23)c1 :: < 1 µM
Cc1cc(C)cc(-n2nc(NS(=O)(=O)c3ccccc3)c3cc(Br)cnc32)c1 :: < 1 µM

Field: next molecule
What does the data say about its EC50? Entry: CC(C)(C)c1ccc2c(NS(=O)(=O)c3ccccc3)nn(-c3ccccc3)c2n1
< 1 µM

* * *

Reported Emax by item:
measurement-target: F508del in NIH 3T3 cells (Homo sapiens, UniProt P13569, DEL508-508)
Construct: expressed in transfected cells
assay-summary: 3T3 assay: membrane potential optical assay for F508del correction
Format: cell-based, mouse
details: NIH3T3; F508del NIH 3T3 cells; efficacy compared to lumacaftor in combination with acutely added 300 nM Ivacaftor; read-out: 3T3 Max Activity (%)
Excerpt: Membrane Potential Optical Methods for Assaying F508del Modulation Properties of Compounds The assay utilizes fluorescent voltage sensing dyes to measure changes in membrane potential using a fluorescent plate reader (e.g., FLIPR III, Molecular Devices, Inc.) as a readout for increase in functional F508del in NIH 3T3 cells. […]

Consider the reported Emax for these compounds:
Cc1cc(C)cc(-n2c(NS(=O)(=O)c3ccccc3)nc3cc(C(C)(C)C)ccc32)c1 :: < 30%
O=S(=O)(Nc1nc2c(s1)CCc1ccccc1-2)c1ccccc1 :: 30 to 60%
COc1cccc(-n2nc(NS(=O)(=O)c3ccccc3)c3ccc(C(C)(C)C)nc32)c1 :: 30 to 60%
CC(C)(C)C1CCc2nc(NS(=O)(=O)c3ccccc3)sc2C1 (stereo not shown) :: 30 to 60%

Field: next compound
What does the data say about its Emax? Entry: Cc1ccccc1-n1cc(NS(=O)(=O)c2ccccc2)c2ccc(C(C)(C)C)nc21
< 30%

* * *

Reported EC50 by item:
measurement-target: F508del in NIH 3T3 cells (Homo sapiens, UniProt P13569, DEL508-508)
assay-summary: 3T3 assay: membrane potential optical assay for F508del correction
details: F508del NIH 3T3 cells, incubated with compound 18-24 hours at 37° C., forskolin activation

CC(C)(C)C1CCc2nc(NS(=O)(=O)c3ccccc3)sc2C1 (centres unmarked) :: 1000 to 3000 nM
Cc1ccccc1Oc1nc(NS(=O)(=O)c2cnn(C)c2)nc2c1C(C)(C)CCC2 :: 1000 to 3000 nM
Cc1ccccc1Oc1nc(NS(=O)(=O)c2cnn(C)c2)nc2c1CCC(C)(C)C2 :: 1000 to 3000 nM
Cc1ccccc1Oc1nc(NS(=O)(=O)c2cnn(C)c2)nc2c1CCc1ccccc1-2 :: < 1000 nM
O=S(=O)(Nc1nc(-c2ccccc2)c2ccn(-c3ccccc3)c2n1)c1ccccc1 :: < 1000 nM
O=S(=O)(Nc1nc2c(s1)Cc1ccccc1-2)c1ccccc1 :: 3000 to 30000 nM

What does the data say about its EC50? Entry: Cc1cc(C)c(-n2nc(NS(=O)(=O)c3cccc(N(C)C)c3)c3ccc(C(C)(C)C)nc32)c(C)c1
< 1000 nM

What does the data say about its EC50? Entry: Cc1ccccc1-n1nc(NS(=O)(=O)c2ccccc2)c2ccc(C(C)(C)C)nc21
< 1000 nM

* * *

measurement-target: F508del in NIH 3T3 cells (Homo sapiens, UniProt P13569, DEL508-508)
assay-summary: 3T3 assay: membrane potential optical assay for F508del correction
details: F508del NIH 3T3 cells, incubated with compound 18-24 hours at 37° C., forskolin activation
Reported EC50 by item:

Consider the reported EC50 for these compounds:
Cc1ccccc1Oc1nc(NS(=O)(=O)c2cnn(C)c2)nc2c1CCCC2(C)C :: 3 to 30 µM
Cc1cc(C)c(Oc2nc3ccccc3nc2NS(=O)(=O)c2ccccc2)c(C)c1 :: 1 to 3 µM
CC(C)(C)c1ccc2c(NS(=O)(=O)c3ccccc3)nn(-c3cccc(Cl)c3)c2n1 :: < 1 µM
Cc1cc(C)cc(-c2nc(NS(=O)(=O)c3ccccc3)nc3nc(C(C)(C)C)ccc23)c1 :: < 1 µM
Cc1cc(C)c(-n2nc(NS(=O)(=O)c3ncc[nH]3)c3ccc(C(C)(C)C)nc32)c(C)c1 :: 1 to 3 µM

Field: next compound
What does the data say about its EC50? Entry: COc1ccccc1-n1nc(NS(=O)(=O)c2ccccc2)c2ccc(C(C)(C)C)nc21
1 to 3 µM

* * *

measurement-target: F508del in NIH 3T3 cells (Homo sapiens, UniProt P13569, DEL508-508)
Construct: expressed in transfected cells
assay-summary: 3T3 assay: membrane potential optical assay for F508del correction
Format: cell-based, mouse
details: NIH3T3; F508del NIH 3T3 cells; efficacy compared to lumacaftor in combination with acutely added 300 nM Ivacaftor; read-out: 3T3 Max Activity (%)
Reported Emax by item:

What does the data say about its Emax? Entry: C=C(C)c1ccc2c(NS(=O)(=O)c3ccccc3)nn(-c3ccccc3C)c2c1 [Compound 72]
> 60%

What does the data say about its Emax? Entry: Cc1ccc(Oc2nc3ccccc3nc2NS(=O)(=O)c2ccccc2)c(C)c1 [Compound 14]
30 to 60%

* * *

measurement-target: F508del in NIH 3T3 cells (Homo sapiens, UniProt P13569, DEL508-508)
assay-summary: 3T3 assay: membrane potential optical assay for F508del correction
details: F508del NIH 3T3 cells, incubated with compound 18-24 hours at 37° C., forskolin activation
observed-property: EC50

Cc1cc(C)c(-n2nc(NS(=O)(=O)c3cn[nH]c3)c3ccc(C(C)(C)C)nc32)c(C)c1 :: 1 to 3 µM
Nc1cccc(S(=O)(=O)Nc2nc(-c3ccccc3)c3ccn(-c4ccccc4)c3n2)c1 :: < 1 µM

Field: next compound
What does the data say about its EC50? Entry: CC(C)n1nc(NS(=O)(=O)c2ccccc2)c2ccc(C(C)(C)C)nc21
1 to 3 µM

* * *

measurement-target: F508del in NIH 3T3 cells (Homo sapiens, UniProt P13569, DEL508-508)
Construct: expressed in transfected cells
assay-summary: 3T3 assay: membrane potential optical assay for F508del correction
Assay type: cell-based, mouse
details: NIH3T3; F508del NIH 3T3 cells; efficacy compared to lumacaftor in combination with acutely added 300 nM Ivacaftor; read-out: 3T3 Max Activity (%)
observed-property: Emax

Cc1cc(C)c(-n2nc(NS(=O)(=O)c3ccc(Cl)cc3)c3ccc(C(C)(C)C)nc32)c(C)c1 :: < 30%
Cc1ccccc1-n1nc(NS(=O)(=O)c2ccccc2)c2ccc(C(C)C)cc21 :: 30 to 60%
Cc1ccccc1-n1nc(NS(=O)(=O)c2ccccc2)c2ccc(Br)cc21 :: 30 to 60%
Cc1ccccc1Oc1nc2ccccc2nc1NS(=O)(=O)c1ccccc1 :: 30 to 60%
Cc1cc(C)cc(-n2nc(NS(=O)(=O)c3ccccc3)c3cc(C(C)C)cnc32)c1 :: 30 to 60%

What does the data say about its Emax? Entry: COc1ccc(S(=O)(=O)Nc2nn(-c3c(C)cc(C)cc3C)c3nc(C(C)(C)C)ccc23)cc1
< 30%

What does the data say about its Emax? Entry: O=S(=O)(Nc1nc2c(c(Oc3ccccc3)n1)CCCC2)c1ccccc1
> 60%

What does the data say about its Emax? Entry: Cc1cc(C)c(Oc2nc3ccccc3nc2NS(=O)(=O)c2ccccc2)c(C)c1
30 to 60%

What does the data say about its Emax? Entry: Cc1cc(C)c(-n2nc3nc(C(C)(C)C)ccc3c2NS(=O)(=O)c2ccccc2)c(C)c1
< 30%

What does the data say about its Emax? Entry: COc1ccccc1-n1nc(NS(=O)(=O)c2ccccc2)c2ccc(C(C)(C)C)nc21
30 to 60%

What does the data say about its Emax? Entry: Cc1ccc(S(=O)(=O)Nc2nn(-c3c(C)cc(C)cc3C)c3nc(C(C)(C)C)ccc23)cc1
< 30%

What does the data say about its Emax? Entry: Cc1ccccc1-n1nc(NS(=O)(=O)c2ccccc2)c2ccc(C(C)(C)C)nc21
30 to 60%

What does the data say about its Emax? Entry: Cc1cc(C)c(-n2nc(NS(=O)(=O)c3cccc(N(C)C)c3)c3ccc(C(C)(C)C)nc32)c(C)c1
> 60%

What does the data say about its Emax? Entry: Cc1cccc(C)c1-c1nc(NS(=O)(=O)c2ccccc2)nc2c1CCCC2(C)c1ccccc1 (stereo not drawn)
> 60%

What does the data say about its Emax? Entry: O=S(=O)(Nc1nc2c(c(Oc3ccccc3)n1)CCC2)c1ccccc1
> 60%

* * *

measurement-target: F508del in NIH 3T3 cells (Homo sapiens, UniProt P13569, DEL508-508)
assay-summary: 3T3 assay: membrane potential optical assay for F508del correction
details: F508del NIH 3T3 cells, incubated with compound 18-24 hours at 37° C., forskolin activation
Reported EC50 by item:

COc1cccc(-n2nc(NS(=O)(=O)c3ccccc3)c3ccc(C(C)(C)C)nc32)c1 [Compound 50] :: < 1 µM

Field: next compound
What does the data say about its EC50? Entry: CC(C)(C)c1ccccc1Oc1nc2ccccc2nc1NS(=O)(=O)c1ccccc1 [Compound 10]
< 1 µM
